Test system: C. albicans SC5314
Settings: SC5314, 6 h, 100
Ends that are not written are not given here.
Task for the reader: assign each of the following sequences its reported % inhibitory activity at 100 µg/ml in comparison to the control growth (water).
Answers are plain numbers, in %.

Reference set, count: 3
{"sequence_chain": "NQVSLTALVK [Peptide C7A]", "observed_measurement": 73.41}
{"sequence_chain": "NQVSLTCLVA [Peptide K10A]", "observed_measurement": 0}
{"sequence_chain": "TARVDHRGLTF [Peptide C2A]", "observed_measurement": 79.32}

Next:
The sequence listed as NQVALTCLVK [Peptide S4A] shows % inhibitory activity at 100 µg/ml in comparison to the control growth (water) equal to 100
